# study_target: UniProt P35368
# Sequence (P35368 whole entry): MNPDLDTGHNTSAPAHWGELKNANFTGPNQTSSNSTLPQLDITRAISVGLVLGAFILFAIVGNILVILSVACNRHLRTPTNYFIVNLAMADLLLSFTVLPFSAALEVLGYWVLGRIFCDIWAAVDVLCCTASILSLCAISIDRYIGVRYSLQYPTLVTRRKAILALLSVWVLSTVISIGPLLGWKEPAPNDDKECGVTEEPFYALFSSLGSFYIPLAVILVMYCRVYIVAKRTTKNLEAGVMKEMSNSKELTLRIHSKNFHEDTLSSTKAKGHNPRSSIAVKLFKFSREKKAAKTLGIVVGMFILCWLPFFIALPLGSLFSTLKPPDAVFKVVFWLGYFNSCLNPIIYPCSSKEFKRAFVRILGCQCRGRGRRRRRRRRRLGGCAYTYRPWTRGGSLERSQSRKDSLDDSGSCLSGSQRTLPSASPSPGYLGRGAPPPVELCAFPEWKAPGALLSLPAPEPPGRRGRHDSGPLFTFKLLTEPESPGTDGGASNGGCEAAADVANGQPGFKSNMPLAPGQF
# method_description: Antagonist activity at human adrenergic Alpha-1B receptor assessed as intracellular calcium luminescence by cell based aequorin assay
pKi: −log10 of the molar value.
test_readout: pKi

1) C1=C(N2CCNCC2)c2nccn2Cc2ccccc21
8.50

###

# method_description: Fraction unbound in rat blood
# Assay type: ADME, tissue-based
test_readout: fraction unbound

1. CC(C)(CN1CCN(C2=Cc3ccccc3Cn3cc(F)nc32)CC1)C(=O)O
0.4

###

# method_description: Half life in rat at 0.5 mg/kg, iv and 1 mg/kg, po
# Type: ADME, organism-based
# condition_description: in vivo
test_readout: half-life (h)

1) CC(C)(CN1CCN(C2=Cc3ccccc3Cn3cc(F)nc32)CC1)C(=O)O
1.8

Each recorded value in this set is attributed to ChEMBL document CHEMBL1221290.
